test: physchem; conditions: 25 °C, aqueous with cosolvent or surfactant or cyclodextrin, thermodynamic from solid
endpoint: solubility (µg/mL)
Express it in µg/mL; write the number only.

Provide one value: measured solubility of COc1cccc2[nH]c(C(=O)N[C@@H](CC(C)C)C(=O)N[C@@H](C[C@@H]3CCNC3=O)C(=O)CO)cc12 [PF-00835231]
1700

----------
assay: physchem; conditions: 4 °C, pH 7, aqueous buffer, thermodynamic from solid
endpoint: solubility at 48 h (µg/mL)
Express it in µg/mL; write the number only.

Provide one value: measured solubility at 48 h of `COc1cccc2[nH]c(C(=O)N[C@@H](CC(C)C)C(=O)N[C@@H](C[C@@H]3CCNC3=O)C(=O)CO)cc12`
100

----------
assay: physchem; details: 4 °C, pH 3, aqueous buffer, thermodynamic from solid
endpoint: solubility at 48 h (µg/mL)
Express it in µg/mL; write the number only.

Provide one value: measured solubility at 48 h of `COc1cccc2[nH]c(C(=O)N[C@@H](CC(C)C)C(=O)N[C@@H](C[C@@H]3CCNC3=O)C(=O)CO)cc12`
100

----------
target: HKU1-CoV 3CLpro (Human coronavirus HKU1, UniProt P0C6X2)
Sequence (P0C6X2 3335-3637): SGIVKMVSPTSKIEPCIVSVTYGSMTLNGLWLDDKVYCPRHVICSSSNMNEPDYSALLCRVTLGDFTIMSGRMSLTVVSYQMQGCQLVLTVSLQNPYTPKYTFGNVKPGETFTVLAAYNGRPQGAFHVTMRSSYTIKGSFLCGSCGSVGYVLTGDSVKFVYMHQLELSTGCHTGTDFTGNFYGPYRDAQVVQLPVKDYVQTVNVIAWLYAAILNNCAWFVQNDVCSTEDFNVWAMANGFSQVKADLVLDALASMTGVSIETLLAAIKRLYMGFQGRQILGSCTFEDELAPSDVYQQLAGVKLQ
endpoint: Ki
# do not omit the unit; it follows the number

Give Ki for this entry on HKU1-CoV 3CLpro (Human coronavirus HKU1, UniProt P0C6X2): `COc1cccc2[nH]c(C(=O)N[C@@H](CC(C)C)C(=O)N[C@@H](C[C@@H]3CCNC3=O)C(=O)CO)cc12`
0.9 nM

----------
biological target: SARS-CoV-2 3CL protease (Severe acute respiratory syndrome coronavirus 2); assay: biochemical; conditions: 15 nM enzyme, 60 min at 23° C.
endpoint: IC50 (nM)
Express it in nM; write the number only.

Worked examples, 3 compounds total:
smiles_code: COc1cccc2[nH]c(C(=O)N[C@@H](Cc3ccccc3)C(=O)N[C@@H](C[C@@H]3CCNC3=O)C(=O)CO)cc12
target_entity: SARS-CoV-2 3CL protease (Severe acute respiratory syndrome coronavirus 2)
reported_measurement: 375

smiles_code: O=C(N[C@@H](CC1CC1)C(=O)N[C@@H](C[C@@H]1CCNC1=O)C(=O)c1nc2ccccc2s1)c1ccccn1
target_entity: SARS-CoV-2 3CL protease (Severe acute respiratory syndrome coronavirus 2)
reported_measurement: 8400

smiles_code: COc1cccc2[nH]c(C(=O)N[C@@H](CC(C)C)C(=O)N[C@@H](C[C@@H]3CCNC3=O)C(=O)COC(=O)C3CC3)cc12
target_entity: SARS-CoV-2 3CL protease (Severe acute respiratory syndrome coronavirus 2)
reported_measurement: 128

Provide one value: measured IC50 of `CC(C)(C)C[C@H](NC(=O)[C@H]1CCCO1)C(=O)N[C@@H](C[C@@H]1CCNC1=O)C(=O)COC(=O)c1c(Cl)cccc1Cl`
17

Provide one value: measured IC50 of `CC(C)(C)C[C@H](NC(=O)c1cc2ccccc2[nH]1)C(=O)N[C@@H](C[C@@H]1CCNC1=O)C(=O)CO`
24

----------
The following are reported pKi results, target or system UniProtKB P0DTD1.
Keep it numeric: pKi is minus log10 of the concentration in mol/L.

Worked examples, 3 molecules total:
smiles_code: COc1cccc2[nH]c(C(=O)N[C@@H](CC(C)C)C(=O)N[C@@H](C[C@@H]3CCNC3=O)C(=O)COC(=O)C3CC3)cc12
pKi: 7.37

smiles_code: COc1cccc2[nH]c(C(=O)N[C@@H](Cc3ccccc3)C(=O)N[C@@H](C[C@@H]3CCNC3=O)C(=O)CO)cc12
pKi: 6.86

smiles_code: CC(C)(C)C[C@H](NC(=O)c1cc2ccccc2[nH]1)C(=O)N[C@@H](C[C@@H]1CCNC1=O)C(=O)CO
pKi: 8.55

Provide one value: measured pKi of `CC(C)(C)C[C@H](NC(=O)[C@H]1CCCO1)C(=O)N[C@@H](C[C@@H]1CCNC1=O)C(=O)COC(=O)c1c(Cl)cccc1Cl`
8.57

Provide one value: measured pKi of `O=C(N[C@@H](CC1CC1)C(=O)N[C@@H](C[C@@H]1CCNC1=O)C(=O)c1nc2ccccc2s1)c1ccccn1`
5.52

----------
molecular target: 229E-CoV-2 3CLpro (Human coronavirus 229E)
Sequence (P0C6X1 2966-3267): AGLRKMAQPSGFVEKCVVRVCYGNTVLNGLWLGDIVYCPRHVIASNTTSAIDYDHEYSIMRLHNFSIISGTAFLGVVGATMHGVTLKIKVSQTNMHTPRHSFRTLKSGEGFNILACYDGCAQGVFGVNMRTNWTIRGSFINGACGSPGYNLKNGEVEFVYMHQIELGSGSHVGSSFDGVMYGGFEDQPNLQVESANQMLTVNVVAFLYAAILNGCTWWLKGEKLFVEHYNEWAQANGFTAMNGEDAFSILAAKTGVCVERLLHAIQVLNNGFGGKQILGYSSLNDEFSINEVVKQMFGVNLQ
endpoint: pKi
Keep it numeric: pKi is minus log10 of the concentration in mol/L.

Give pKi for this entry on 229E-CoV-2 3CLpro (Human coronavirus 229E): COc1cccc2[nH]c(C(=O)N[C@@H](CC(C)C)C(=O)N[C@@H](C[C@@H]3CCNC3=O)C(=O)CO)cc12 [PF-00835231]
8.82

----------
system: SARS-CoV-2 USA-WA1/2020; experiment: In vitro drug efficacy in A549+ACE2 cells; format: cell-based; details: Severe acute respiratory syndrome coronavirus 2, A549-ACE2, 48 h
endpoint: pEC50
Keep it numeric: pEC50 is minus log10 of the concentration in mol/L.

Give pEC50 for this entry on SARS-CoV-2 USA-WA1/2020: `COc1cccc2[nH]c(C(=O)N[C@@H](CC(C)C)C(=O)N[C@@H](C[C@@H]3CCNC3=O)C(=O)CO)cc12`
6.80

----------
tested on: VeroE6-enACE2 cells; settings: African green monkey
endpoint: CC50

Provide one value: measured CC50 of COc1cccc2[nH]c(C(=O)N[C@@H](CC(C)C)C(=O)N[C@@H](C[C@@H]3CCNC3=O)C(=O)CO)cc12 [PF-00835231]
> 100 µM

----------
molecular target: OC43-CoV 3CLpro (Human coronavirus OC43)
Sequence (P0C6X6 3247-3549): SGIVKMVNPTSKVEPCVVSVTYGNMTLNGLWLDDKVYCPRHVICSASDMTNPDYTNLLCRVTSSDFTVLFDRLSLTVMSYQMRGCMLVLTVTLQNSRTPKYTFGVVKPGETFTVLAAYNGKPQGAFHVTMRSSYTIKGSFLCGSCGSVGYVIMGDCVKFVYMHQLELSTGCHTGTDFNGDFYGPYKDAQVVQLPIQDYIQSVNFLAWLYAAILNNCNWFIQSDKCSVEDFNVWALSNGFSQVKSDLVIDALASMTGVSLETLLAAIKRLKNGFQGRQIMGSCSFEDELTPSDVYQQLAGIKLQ
endpoint: Ki (nM)
Express it in nM; write the number only.

Give Ki for this entry on OC43-CoV 3CLpro (Human coronavirus OC43): `COc1cccc2[nH]c(C(=O)N[C@@H](CC(C)C)C(=O)N[C@@H](C[C@@H]3CCNC3=O)C(=O)CO)cc12`
0.5

----------
system: MRC-5 cells; assay: Cytotoxicity in MRC-5 cells; details: read-out: CC50 μM GeoMean; MRC-5, Efflux Inhibitor 0.5 μM
endpoint: CC50

Provide one value: measured CC50 of COc1cccc2[nH]c(C(=O)N[C@@H](CC(C)C)C(=O)N[C@@H](C[C@@H]3CCNC3=O)C(=O)CO)cc12 [PF-00835231]
> 100 µM

----------
test: physchem; conditions: 25 °C, pH 5, aqueous buffer, thermodynamic from solid, Saturated solubility for PF-00835231 at 25° C.
endpoint: solubility at 25 h (µg/mL)
Express it in µg/mL; write the number only.

Provide one value: measured solubility at 25 h of COc1cccc2[nH]c(C(=O)N[C@@H](CC(C)C)C(=O)N[C@@H](C[C@@H]3CCNC3=O)C(=O)CO)cc12 [PF-00835231]
200

----------
experiment: Plasma protein binding by equilibrium dialysis
endpoint: fraction unbound

Provide one value: measured fraction unbound of `COc1cccc2[nH]c(C(=O)N[C@@H](CC(C)C)C(=O)N[C@@H](C[C@@H]3CCNC3=O)C(=O)CO)cc12`
0.26 to 0.46

----------
system: SARS-CoV-2 Washington strain 1; test: Cytopathic effect (CPE) assay in VeroE6-enACE2 cells; type: cell-based; details: read-out: EC50 μM GeoMean
endpoint: EC50
# do not omit the unit; it follows the number

Give EC50 for this entry on SARS-CoV-2 Washington strain 1: `COc1cccc2[nH]c(C(=O)N[C@@H](CC(C)C)C(=O)N[C@@H](C[C@@H]3CCNC3=O)C(=O)CO)cc12`
0.23 µM

----------
assay: Intravenous pharmacokinetics; settings: rat, dog, monkey, in vivo, 2 mg/kg
endpoint: half-life

Provide one value: measured half-life of `COc1cccc2[nH]c(C(=O)N[C@@H](CC(C)C)C(=O)N[C@@H](C[C@@H]3CCNC3=O)C(=O)CO)cc12`
< 90 min

----------
experiment: physchem; settings: 25 °C, organic solvent or mixture, thermodynamic from solid
endpoint: solubility at 48 h

Provide one value: measured solubility at 48 h of COc1cccc2[nH]c(C(=O)N[C@@H](CC(C)C)C(=O)N[C@@H](C[C@@H]3CCNC3=O)C(=O)CO)cc12 [PF-00835231]
> 45 mg/mL

----------
test: Cytotoxicity in MRC-5 cells; settings: human
endpoint: CC50

Provide one value: measured CC50 of COc1cccc2[nH]c(C(=O)N[C@@H](CC(C)C)C(=O)N[C@@H](C[C@@H]3CCNC3=O)C(=O)CO)cc12 [PF-00835231]
> 100 µM

----------
assay: in vitro; settings: human
endpoint: CC50

Provide one value: measured CC50 of `COc1cccc2[nH]c(C(=O)N[C@@H](CC(C)C)C(=O)N[C@@H](C[C@@H]3CCNC3=O)C(=O)CO)cc12`
> 10 µM

----------
target: Human Elastase (Homo sapiens, UniProt P08246); assay: Protease panel; type: biochemical
Sequence (P08246 30-247): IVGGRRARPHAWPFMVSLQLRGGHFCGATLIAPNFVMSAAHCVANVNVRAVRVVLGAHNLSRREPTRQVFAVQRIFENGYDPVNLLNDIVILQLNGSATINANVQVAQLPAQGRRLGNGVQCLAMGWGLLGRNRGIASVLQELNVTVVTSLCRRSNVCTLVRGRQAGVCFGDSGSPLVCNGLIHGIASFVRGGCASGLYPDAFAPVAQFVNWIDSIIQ
endpoint: IC50

Provide one value: measured IC50 of `COc1cccc2[nH]c(C(=O)N[C@@H](CC(C)C)C(=O)N[C@@H](C[C@@H]3CCNC3=O)C(=O)CO)cc12`
> 33.3 µM
